The reported measurements were obtained from patent US20220204627A1.

system_tested: human P Glycoprotein (Pgp) / Multidrug resistance protein 1 (MDR1), gene ABCB1, on cells (human, UniProt P08183 1-1280)
experiment_description: cell-based or functional assay
For each record, write down the corresponding Vincristine IC50 (nM) on N6/ADR cells with antibody at 50 ug/mL.
Express the result in nM but write the number alone.

# get_value(readout='Vincristine IC50 (nM) on N6/ADR cells with antibody at 50 ug/mL', item= anti-MDR1 antibody MRK16 (recombinant, human IgG1/Kappa) (antibody, V domains shown) VH: EVILVESGGGLVKPGGSLKLSCAASGFTFSSYTMSWVRQTPEKRLEWVATISSGGGNTYYPDSVKGRFTISRDNAKNNLYLQMSSLRSEDTALYYCARYYRYEAWFASWGQGTLVTVSA VL: DVLMTQTPVSLSVSLGDQASISCRSSQSIVHSTGNTYLEWYLQKPGQSPKLLIYKISNRFSGVPDRFSGSGSGTDFTLKISRVEAEDLGVYYCFQASHFPRTFGGGTKLEIK )
0.734

Could you tell me which Vincristine IC50 (nM) on N6/ADR cells with antibody at 50 ug/mL is on file for anti-MDR1 antibody 15D3 (recombinant, human IgG1/Kappa) (antibody, V domains shown, also called 15D3/15D3) VH: EVKVVESGGVLVRPGGSLKLSCAASGFTFSRYTMSWVRQTPEKRLEWVATISSGGGNTYYPDSVKGRFTVSRDNAMSSLYLQMSSLRSEDTALYYCARYGAGDAWFAYWGQGTLVTVSA VL: DVLMTQTPLSLPVSLGDQASISCRSSQSIVHSTGNTYLEWYLQKPGQSPKLLIYKVSNRFSGVPDRFSGSGSGTDFTLKISRLEAEDLGVYYCFQGSHFPRTFGGGTRLEIK ?
0.466

What does the record list as Vincristine IC50 (nM) on N6/ADR cells with antibody at 50 ug/mL for Ab5 (15D3 HC-Hz1 DD hIgG1 / KT14 IgG1 KK / MRK16 VL-Hz1) (bispecific antibody, V domains shown, Human IgG1 heavy chains with DD on the 15D3 arm and KK on the KT14 (5F9) arm; kappa light chain) VH 1: EVQLVESGGVVVQPGGSLRLSCAASGFTFSRYTMSWVRQAPGKGLEWVATISSGGGQTYYPDSVKGRFTVSRDNSKNSLYLQMNSLRTEDTALYYCARYGAGDAWFAYWGQGTLVTVSS VH 2: QVQLVQSGAEVKKPGASVKVSCKASGYTFTNYNMHWVRQAPGQRLEWMGTIYPGNDDTSYNQKFKDRVTITADTSASTAYMELSSLRSEDTAVYYCARGGYRAMDYWGQGTLVTVSS VL: DIVMTQTPLSSPVTLGQPASISCRSSQSIVHSTGQTYLEWYQQRPGQPPRLLIYKISNRFSGVPDRFSGSGAGTDFTLKISRVEAEDVGVYYCFQASHFPRTFGQGTKLEIK ?
0.0589

Dear colleague, I am looking for the recorded Vincristine IC50 (nM) on N6/ADR cells with antibody at 50 ug/mL of the following binder: KBisP1.1 bispecific antibody (15D3 IgG1 DD/5F9 IgG1 KK/MRK16) (bispecific antibody, V domains shown, 15D3 VH on human IgG1 with K392D and K409D (DD), 5F9 VH on human IgG1 with E356K and D399K (KK), EU numbering; also called KNJYBisP1.1; KBis1.1) VH 1: EVKVVESGGVLVRPGGSLKLSCAASGFTFSRYTMSWVRQTPEKRLEWVATISSGGGNTYYPDSVKGRFTVSRDNAMSSLYLQMSSLRSEDTALYYCARYGAGDAWFAYWGQGTLVTVSA VH 2: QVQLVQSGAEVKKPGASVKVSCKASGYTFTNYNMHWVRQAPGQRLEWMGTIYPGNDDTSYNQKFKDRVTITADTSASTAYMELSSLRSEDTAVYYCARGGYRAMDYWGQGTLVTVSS VL: DVLMTQTPVSLSVSLGDQASISCRSSQSIVHSTGNTYLEWYLQKPGQSPKLLIYKISNRFSGVPDRFSGSGSGTDFTLKISRVEAEDLGVYYCFQASHFPRTFGGGTKLEIK
0.0461
